Biological target: T1, recombinant human IL-25 protein (human, UniProt Q9H293 33-177)
T1 construct: Bought (Acro, catalog no: IL5-H4221) for ELISA; also called hIL-25; IL-17E
T1 sequence: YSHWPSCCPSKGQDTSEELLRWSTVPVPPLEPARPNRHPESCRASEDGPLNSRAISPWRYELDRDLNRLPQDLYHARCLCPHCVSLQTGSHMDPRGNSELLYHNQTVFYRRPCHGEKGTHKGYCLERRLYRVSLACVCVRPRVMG
Assay: BLI (Octet), antibody captured on anti-human Fc biosensor, human IL-25 as analyte
Quick reference for Kd among some binders

Example results:
[[record]]
binder = "IL25Ab4 (antibody, V domains shown) VH: QVTLKESGPGILQPSQTLSLTCSFSGFSLSTSGMGVSWIRQPSGKGLEWLAHIYWDDAKFYNPSLKSRVTISKDTSRNQVFLRITSVDTADIATYYCARRGYDNYGGFVDWGQGTLVTVSS VL: ENVLIQSPAIMSASLGEKVTMSCRASSSVNYMYWYQQKSDAPPKLWIYYTSNLAPGVPGRFSGSGSGNSYSLTISSMEGEDAATYYCQQFTSYPYMYTFGGGTKLEIK"
measured_metric = "Kd"
result_value = "< 1 pM"

[[record]]
binder = "IL25Ab2 (antibody, V domains shown) VH: QVTLKESGPGILQPSQTLSLTCSFSGFSLSTSGMGVGWIRQPSGKGLEWLAHIWWDDVKQYNPALQSRLTISKDTSSSQVFLKIASVDIADIATYYCARIGPVHHGFPYWGQGALVTVSS VL: QIVLTQSPAIMSAFPGEKVTMSCSASSSVNYMYWHQQKPGSSPRLLIYDTSNLASGVPVRFSGSGSGTSYSLTISRMEAEDAATYYCQQWTSYPPMYTFGGGTKLEIK"
measured_metric = "Kd"
result_value = "< 1 pM"


Below: the item to evaluate.
In: // lookup Kd for IL25Ab5 (antibody, V domains shown) VH: QVQLQQWGAGLLKPSETLSLTCAVYGGSFSAYYWSWIRQSPGKGLEWIGEINHGGNTNYSPSLKSRVTISVDTSKSQFSLKLSSVTAADTAAYYCARGPGITSWAFDFWDQGTMVTVSS VL: DIQMTQSPSSLSASVGDRVTIACQASQDINNYLNWYQQKPGKAPKLLIYDASNLETGVPSRFSGNGSGTDFTFTISSLQPEDIATFYCQQYDTLPYTFGQGTKLEIR
Out: < 1 pM

// provenance: patent US20260242458A1
